Molecular target: SHP2 protein (Homo sapiens, UniProt Q06124)
Sequence (Q06124 1-593): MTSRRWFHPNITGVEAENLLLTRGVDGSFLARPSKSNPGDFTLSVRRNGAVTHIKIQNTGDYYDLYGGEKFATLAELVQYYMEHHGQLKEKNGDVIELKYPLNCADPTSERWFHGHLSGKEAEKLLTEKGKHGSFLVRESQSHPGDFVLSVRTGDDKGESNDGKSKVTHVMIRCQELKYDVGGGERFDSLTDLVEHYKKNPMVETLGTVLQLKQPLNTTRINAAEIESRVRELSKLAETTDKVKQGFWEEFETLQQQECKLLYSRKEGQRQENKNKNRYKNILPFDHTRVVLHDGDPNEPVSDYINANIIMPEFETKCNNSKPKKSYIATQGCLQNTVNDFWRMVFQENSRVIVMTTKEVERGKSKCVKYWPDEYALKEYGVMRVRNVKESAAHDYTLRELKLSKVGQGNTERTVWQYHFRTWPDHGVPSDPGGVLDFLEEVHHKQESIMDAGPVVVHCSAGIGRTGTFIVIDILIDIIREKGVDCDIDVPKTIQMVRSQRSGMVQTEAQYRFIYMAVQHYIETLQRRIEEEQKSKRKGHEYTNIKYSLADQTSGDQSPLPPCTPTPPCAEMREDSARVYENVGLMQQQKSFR
Assay: Measurement of SHP2 protein degradation in MV-4-11 cells (western blotting)
Format: cell-based
Design: endogenous in cells
Details: 0.01 μM, harvested after 24 hours
Answer each item with its documented SHP2% degradation.
Report as: number unit

Here is how some compounds turned out for SHP2% degradation.
- SMILES ENTRY: "Cc1ncsc1-c1ccc([C@H](C)NC(=O)[C@@H]2C[C@@H](O)CN2C(=O)[C@@H](NC(=O)C2(F)CC2)C(C)(C)C)c(OC2CCN(C(=O)C3CCN(c4nccc(Sc5cnc(N6CCC(C)(CN)CC6)cn5)c4Cl)CC3)CC2)c1"
  MEASUREMENT: "81.9%"
- SMILES ENTRY: "Cc1ncsc1-c1ccc(CNC(=O)[C@@H]2C[C@@H](O)CN2C(=O)[C@@H](NC(=O)C2(F)CC2)C(C)(C)C)c(O[C@H]2CC[C@H](C(=O)N3CCC(CNc4cccc(Sc5cnc(N6CCC(C)(CN)CC6)cn5)c4Cl)CC3)CC2)c1"
  MEASUREMENT: "50.4%"
- SMILES ENTRY: "Cc1ncsc1-c1ccc(CNC(=O)[C@@H]2C[C@@H](O)CN2C(=O)[C@@H](NC(=O)C2(F)CC2)C(C)(C)C)c(OC2CCN(CC3CCN(c4nccc(Sc5cnc(N6CCC(C)(CN)CC6)cn5)c4Cl)CC3)CC2)c1"
  MEASUREMENT: "4.0%"

# input for lookup
Ask: Give the reported SHP2% degradation for this compound. Cc1ncsc1-c1ccc(CNC(=O)[C@@H]2C[C@@H](O)CN2C(=O)[C@@H](NC(=O)C2(F)CC2)C(C)(C)C)c(OC2CCN(C(=O)C3CCN(c4nccc(Sc5cnc(N6CCC(C)(N)CC6)cn5)c4Cl)CC3)CC2)c1
Result: 78.6%

The reported numbers originate from patent US20260144788A1.
